# Test system: HT-1080
# Assay method text: Antitumor activity against human HT-1080 cells xenografted in chick embryo assessed as reduction in tumor wet weight at 1 ug, iv incubated for 17 days by CAM assay
# Assay type: functional
# Parameters: scale not given: the % may be the effect or the level left
# Run conditions: dose 1 µg, time 17 day
Here, each record is paired with measured Activity data.
Record the value in %, omitting the unit from your answer.

Record excerpt, results attached:
| Smiles input | Assay system | Units label | Activity |
| --- | --- | --- | --- |
| CCCCCN1CCN(c2ccc(S(=O)(=O)Oc3cc(OC)cc(OC)c3)cc2)C1=O | HT-1080 | % | 86 |
| COc1cc(OS(=O)(=O)c2ccc(N3CCNC3=O)cc2)cc(OC)c1OC | HT-1080 | % | 49 |
| CCCCN1CCN(c2ccc(S(=O)(=O)Oc3cc(OC)c(OC)c(OC)c3)cc2)C1=O | HT-1080 | % | 85 |

Okay, now this compound:
Problem: # input compound: `CCCCCN1CCN(c2ccc(S(=O)(=O)Oc3cc(OC)c(OC)c(OC)c3)cc2)C1=O` ; wanted: its Activity
Solution: 82

---

Property: Ratio IC50; scope: individual compounds
# Assay method text: Selectivity ratio, ratio of IC50 for antiproliferative activity against human HT-29 cells to IC50 for antiproliferative activity against human MCF7 cells expressing CYP1A1
# Assay type: functional

These solved cases illustrate the format of a correct answer.
| Compound | Readout name | Result value |
| --- | --- | --- |
| CCCCCN1CCN(c2ccc(S(=O)(=O)Oc3cccc(Br)c3)cc2)C1=O | Ratio IC50 | >42 |
| CCCCCCN1CCN(c2ccc(S(=O)(=O)Oc3cc(Cl)cc(Cl)c3)cc2)C1=O | Ratio IC50 | >5 |
| CCCCCN1CCN(c2ccc(S(=O)(=O)Oc3cccc(F)c3)cc2)C1=O | Ratio IC50 | >10 |
| CCCCCN1CCN(c2ccc(S(=O)(=O)Oc3cc(OC)c(OC)c(OC)c3)cc2)C1=O | Ratio IC50 | >63 |
| COc1cc(OS(=O)(=O)c2ccc(N3CCNC3=O)cc2)cc(OC)c1OC | Ratio IC50 | 1.6 |

Problem: Name the recorded Ratio IC50 for `CCCCCCN1CCN(c2ccc(S(=O)(=O)Oc3cc(F)cc(F)c3)cc2)C1=O` .
Solution: >6.3

---

# Assay method text: Stability in mouse liver microsomes assessed as half life incubated for 60 mins by HPLC analysis
# Format: ADME, Microsome
Label scheme for half-life: lower than 20 min is Not fulfilled, 20 min and above is Fulfilled.

| Smiles input | Discrete label |
| --- | --- |
| CCCCN1CCN(c2ccc(S(=O)(=O)Oc3cccc(I)c3)cc2)C1=O | Not fulfilled |

Problem: Test whether the molecule `CCCCCN1CCN(c2ccc(S(=O)(=O)Oc3cccc(I)c3)cc2)C1=O` records half-life of 20 min or higher.
Solution: Fulfilled

Problem: Lookup `CCCN1CCN(c2ccc(S(=O)(=O)Oc3cc(OC)c(OC)c(OO)c3)cc2)C1=O`
Solution: Not fulfilled

Problem: Now consider `CCCCN1CCN(c2ccc(S(=O)(=O)Oc3cccc(Cl)c3)cc2)C1=O` .
Solution: Not fulfilled

---

# Test system: M21
# Assay method text: Antiproliferative activity against human M21 cells assessed as cell growth inhibition incubated for 48 hrs by sulforhodamine B assay
# Format: functional, cell-based
# Run conditions: M21, 48 h
Readout name: IC50

Problem: Need IC50, item `CCCCCCCCN1CCN(c2ccc(S(=O)(=O)Oc3cc(OC)cc(OC)c3)cc2)C1=O`
Solution: > 2500 nM

Problem: Query `CCCCN1CCN(c2ccc(S(=O)(=O)Oc3cc(OC)c(OC)c(OC)c3)cc2)C1=O` next
Solution: 2400 nM

Problem: Can you check `CCCCCN1CCN(c2ccc(S(=O)(=O)Oc3ccccc3)cc2)C1=O` next?
Solution: > 25000 nM

Problem: Then `CCCCCCCCN1CCN(c2ccc(S(=O)(=O)Oc3cccc(Cl)c3)cc2)C1=O` ?
Solution: > 1250 nM

Problem: And `CCCCCN1CCN(c2ccc(S(=O)(=O)Oc3ccc(F)c(F)c3)cc2)C1=O` ?
Solution: > 12500 nM
